STUDY SYSTEM: T1, human ASGR-1 (wild type) (human, UniProt P07306 1-291)
T1 construct: also called wt ASGR1; huASGR-1
T1 sequence: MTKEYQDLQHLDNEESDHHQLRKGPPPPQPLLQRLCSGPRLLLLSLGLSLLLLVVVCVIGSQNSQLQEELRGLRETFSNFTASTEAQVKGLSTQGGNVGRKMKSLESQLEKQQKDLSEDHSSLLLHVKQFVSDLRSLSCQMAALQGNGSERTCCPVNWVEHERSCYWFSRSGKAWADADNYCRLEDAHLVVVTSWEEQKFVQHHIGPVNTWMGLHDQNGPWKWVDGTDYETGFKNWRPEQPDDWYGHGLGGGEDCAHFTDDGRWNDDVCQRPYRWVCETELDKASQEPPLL
ASSAY INFO: FACS ratio: 65C12 geomean / this mAb geomean

{"columns": ["BINDER", "Expression Normalization to mAb 65C12"],
 "data": [
  ["173C11 (antibody, V domains shown, mAb) VH: QVQLVESGGGVVQPGRSLRLSCAASGFTFSSYGIHWVRQAPGKGLEWVALIFYDGSNKYYADSVKGRFTISRDNSKNTLYLHMSSLRAEDTAVYYCARRYSSSWSGGMDVWGQGTTVTVSS VL: DIVMTQTPLSLSVTPGQPASISCKSSQSLLHSEGKTYLYWYLQKPGQPPQLLIYEVSHRFSGVPDRFSGSGSGTDFTLKISRVEAEDVGVYYCMQSIQLLTFGGGTKVEIK", 1.97]
]}
